- study_target: DLL4 (human, UniProt Q9NR61)
- Sequence (Q9NR61 27-524): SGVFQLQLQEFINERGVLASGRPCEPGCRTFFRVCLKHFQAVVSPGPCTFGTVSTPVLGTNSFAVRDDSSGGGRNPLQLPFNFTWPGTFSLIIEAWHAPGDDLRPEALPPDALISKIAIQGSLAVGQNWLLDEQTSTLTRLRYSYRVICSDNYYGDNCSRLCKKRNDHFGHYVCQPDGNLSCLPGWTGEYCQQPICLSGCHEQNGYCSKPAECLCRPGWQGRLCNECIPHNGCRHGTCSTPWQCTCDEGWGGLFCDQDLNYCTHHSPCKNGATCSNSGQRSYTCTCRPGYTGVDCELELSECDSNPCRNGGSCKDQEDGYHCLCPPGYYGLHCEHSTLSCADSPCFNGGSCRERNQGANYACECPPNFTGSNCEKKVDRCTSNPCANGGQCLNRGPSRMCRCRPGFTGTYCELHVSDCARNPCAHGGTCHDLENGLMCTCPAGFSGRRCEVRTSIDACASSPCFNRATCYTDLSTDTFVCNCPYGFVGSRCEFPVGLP
- measurement_protocol: ELISA
Each item that follows carries a reported EC50.
// return numeric value only (unit: nM, not printed)

- DVD515 DLL4 arm (antibody, V domains shown, DVD-Ig outer) VH: EVQLQQSGPELEKPGASVKISCKASGYSFTGYNMNWVKQSNGKSLEWIGNIDPYFGGTNYNQKFKGKATLTVDKSSSTAYMQLKSLTSEDSAVYYCARNYDYDGGCFDYWGQGTTLTVSS VL: QAVVTQESALTTSPGETVTLTCRSSTGAVTTSNYANWVQEKPDHLFTGLIGGTNNRAPGVPARFSGSLIGDKAALTITGAQTEDEAIYFCALWYSNHWVFGGGTKLTVLG: 0.2

-- ask Given the binder DVD441 DLL4 arm (antibody, V domains shown, DVD-Ig outer) VH: QVQLVQSGAEVKKPGASVKISCKASGYSFTAYYIHWVKQAPGQGLEWIGYISSYNGATNYNQKFKGRVTFTTDTSTSTAYMELRSLRSDDTAVYYCARDYDYDVGMDYWGQGTLVTVSS VL: DIVMTQSPDSLAVSLGERATISCRASESVDNYGISFMKWFQQKPGQPPKLLIYAASNQGSGVPDRFSGSGSGTDFTLTISSLQAEDVAVYYCQQSKEVPWTFGGGTKVEIKR , what is its reported EC50?
-- reply 0.04
